# credit: patent US10774064B2

target: small-conductance Ca2+-activated K+ channels (SK channels, subtype 2) (Homo sapiens)
Construct: expressed in transfected cells; host or cells: HEK293
assayComment: whole-cell patch-clamp of ionic current through SK2 channels in HEK293 cells (SC100)
Format: cell-based
conditionDetails: concentration that increases the basal current by 100%; HEK293 cells expressing SK2 channels

compound	SC100
Cc1cc(C)n(-c2cc(N3CCOC(C(N)=O)C3)nc(NC3CCC(F)(F)CC3)n2)n1 (stereo not shown)	+ (+ means >1 uM)
Cc1cc(C)n(-c2nc(CN3CCN(C)CC3)cc(NC3CCC(F)(F)CC3)n2)n1	+ (+ means >1 uM)

* * *

target: small-conductance Ca2+-activated K+ channels (SK channels, subtype 2) (Homo sapiens, UniProt Q9H2S1)
Construct: expressed in transfected cells; host or cells: HEK293
assayComment: whole-cell patch-clamp of ionic current through SK2 channels in HEK293 cells (SC100)
Format: cell-based
conditionDetails: whole-cell patch-clamp, HEK293 cells expressing SK2 channels; concentration that increases the basal current by 100%

molecule	SC100 (μM)
Cn1cnc(COc2cc(NC3CCC(F)(F)CC3)nc(-n3ccc(C4CC4)n3)n2)n1 [IN11106-066-P1]	+ (+ means >1 uM)
COC(=O)NCc1cc(NC2CCC(F)(F)CC2)nc(-n2ccc(C)n2)n1 [IN11053-033-P1]	+ (+ means >1 uM)
Cc1ccn(-c2cc(N3CCOCC3)cc(C(=O)c3ccc(F)cc3)n2)n1	+ (+ means >1 uM)

* * *

target: small-conductance Ca2+-activated K+ channels (SK channels, subtype 2) (Homo sapiens, UniProt Q9H2S1)
Construct: expressed in transfected cells; host or cells: HEK293
assayComment: whole-cell patch-clamp of ionic current through SK2 channels in HEK293 cells (SC100)
Assay type: cell-based
conditionDetails: concentration that increases the basal current by 100%; HEK293 cells expressing SK2 channels
endpointName: SC100

molecule	endpointName	observedMeasurement
Cc1cc(C)n(-c2cc(C(F)F)nc(NC3CCC(F)(F)C3)n2)n1 (stereo not shown)	SC100	+ (+ means >1 uM)
Cc1cc(C)n(-c2cc(NC(C)C(N)=O)nc(NC3CCC(F)(F)CC3)n2)n1 (stereo not shown)	SC100	+ (+ means >1 uM)
CCN(c1nc(C)cc(-n2nc(C)cc2C)n1)C1CCC(F)(F)CC1	SC100	+ (+ means >1 uM)

* * *

target: small-conductance Ca2+-activated K+ channels (SK channels, subtype 2) (Homo sapiens, UniProt Q9H2S1)
Construct: expressed in transfected cells; host or cells: HEK293
assayComment: whole-cell patch-clamp of ionic current through SK2 channels in HEK293 cells (SC100)
Assay type: cell-based
conditionDetails: concentration that increases the basal current by 100%; HEK293 cells expressing SK2 channels
Structures can show the parent of a compound that is named as a salt.
endpointName: SC100

compound	observedMeasurement
Cc1cc(C)n(-c2nc(CN3CCOCC3)cc(NC3CCC(F)(F)CC3)n2)n1 [Compound 176]	+ (+ means >1 uM)
Cc1ccn(-c2nc(NC3CCC(F)(F)CC3)cc(C3COCCC3O)n2)n1 (centres unmarked) [Compound 232]	+ (+ means >1 uM)
Cc1cc(C)n(-c2nc(NC3CCC(F)(F)CC3)cc(N3C[C@H]4CC3CN4)n2)n1 [Compound 103, hydrochloride salt]	+ (+ means >1 uM)

* * *

target: small-conductance Ca2+-activated K+ channels (SK channels, subtype 2) (Homo sapiens, UniProt Q9H2S1)
Construct: expressed in transfected cells; host or cells: HEK293
assayComment: whole-cell patch-clamp of ionic current through SK2 channels in HEK293 cells (SC100)
Type: cell-based
conditionDetails: whole-cell patch-clamp, HEK293 cells expressing SK2 channels; concentration that increases the basal current by 100%
endpointName: SC100 (μM)

Examples with answers:
compound	SC100 (μM)
Cc1csc(-c2nc(NC3CCC(F)(F)CC3)cc(N3CCCOCC3)n2)n1 [IN10864-034.P1]	+++ (+++ means <200 nM)
C/C(=N\O)Nc1cc(NC2CCC(F)(F)CC2)nc(-c2nc(C)no2)n1	+ (+ means >1 uM)
Cc1ccn(-c2cc(COc3ccc(C#N)nn3)cc(NC3CCC(F)(F)CC3)n2)n1	+++ (+++ means <200 nM)
COc1cnc(-n2nc(C)c(F)c2C)nc1NC1CCC(F)(F)CC1	+ (+ means >1 uM)
Cc1csc(-c2cc(N3CCN4C(=O)OCC4C3)cc(NC3CCC(F)(F)CC3)n2)n1 (stereo not drawn)	+++ (+++ means <200 nM)
Cc1ccn(-c2nc(NC3CCC(F)(F)CC3)cc(C(C)O)n2)n1 (stereo not drawn) [IN10876-051-P1]	+ (+ means >1 uM)
COC(=O)N1CC(Oc2cc(NC3CCC(C(F)(F)F)CC3)nc(-c3nc(C)cs3)n2)C1 (stereo not drawn)	+ (+ means >1 uM)
Cc1nc(-c2nc(NC3CCC(F)(F)CC3)cc(N3CCS(=O)(=O)CC3)n2)cs1	+ (+ means >1 uM)
Cc1ccn(-c2cc(COC(=O)N(C)C)cc(NC3CCC(F)(F)CC3)n2)n1 [IN11039-006-P1]	+++ (+++ means <200 nM)
COc1cc(NC2CCC(F)(F)CC2)nc(-n2ccc(C)n2)n1 [IN11053-005-P1]	+ (+ means >1 uM)

IN: GET /values?readout=SC100 (μM)&item= COC(=O)N1CC(Oc2cc(NC3CCC(F)(F)CC3)nc(-c3nc(CO)cs3)n2)C1
OUT: + (+ means >1 uM)

IN: Also check Cc1csc(-c2cc(OC3CCC(F)(F)CC3)nc(N3CCOCC3)c2)n1
OUT: + (+ means >1 uM)

IN: Also check Cc1ccn(-c2nc(NCC3CCCO3)cc(C(C)O)n2)n1 (stereo not drawn) [IN10880-055-P1]
OUT: + (+ means >1 uM)

* * *

target: small-conductance Ca2+-activated K+ channels (SK channels, subtype 2) (Homo sapiens, UniProt Q9H2S1)
Construct: expressed in transfected cells; host or cells: HEK293
assayComment: whole-cell patch-clamp of ionic current through SK2 channels in HEK293 cells (SC100)
Type: cell-based
conditionDetails: whole-cell patch-clamp, HEK293 cells expressing SK2 channels; concentration that increases the basal current by 100%
endpointName: SC100 (μM)

Examples with answers:
compound	SC100 (μM)
Cc1nsc(-c2nc(NC3CCC(F)(F)CC3)cc(N3CC4(COC4)C3)n2)n1	+ (+ means >1 uM)
Cc1ccn(-c2nc(NC(C)C)cc(C(C)O)n2)n1 (stereo not drawn) [IN10880-056-P1]	+ (+ means >1 uM)
Cc1ccn(-c2nc(NC3CCC(F)(F)CC3)nc(N3CCOCC3)n2)n1 [IN10984-079-P1]	+ (+ means >1 uM)
Cc1csc(-c2cc(CN(C)C=O)cc(NC3CCC(F)(F)CC3)n2)n1 [IN11133-069-P1]	+++ (+++ means <200 nM)
Cc1csc(-c2cc(N3CCN(C)C(=O)C3)cc(NC3CCC(F)(F)CC3)n2)n1	+++ (+++ means <200 nM)
Cc1ccn(-c2nc(NC3CCC(F)CC3)cc(N3CCOCC3)n2)n1 (stereo not drawn)	+ (+ means >1 uM)
COc1cc(C)n(-c2nc(NC3CCC(F)(F)CC3)cc(N3CCOCC3)n2)n1 [IN11217-088-P1]	+ (+ means >1 uM)
Cc1ccn(-c2cc(N3CCOCC3)cc([C@@H](O)c3ccc(F)cc3)n2)n1	+ (+ means >1 uM)

# context switch: different compound, same SC100 (μM)
IN: GET /values?readout=SC100 (μM)&item= COC(C)c1cc(NC2CCC(F)(F)CC2)nc(-n2ccc(C3CC3)n2)n1 (stereo not drawn) [IN11196-026-P1]
OUT: + (+ means >1 uM)

* * *

target: small-conductance Ca2+-activated K+ channels (SK channels, subtype 2) (Homo sapiens, UniProt Q9H2S1)
Construct: expressed in transfected cells; host or cells: HEK293
assayComment: whole-cell patch-clamp of ionic current through SK2 channels in HEK293 cells (SC100)
Assay type: cell-based
conditionDetails: whole-cell patch-clamp, HEK293 cells expressing SK2 channels; concentration that increases the basal current by 100%
endpointName: SC100 (μM)

Examples with answers:
compound	SC100 (μM)
Cc1csc(-c2nc(NC3CCC(F)(F)CC3)cc(C(C)(F)F)n2)n1 [IN10876-082-P1]	+ (+ means >1 uM)
CN(C)C1CN(c2cc(Nc3ccc(F)cc3)nc(-n3ccc(CF)n3)c2)C1	+ (+ means >1 uM)
Cc1csc(-c2nc(NC3(C)CCCCC3)cc(N3CCOCC3)n2)n1 [IN10973-099-P1]	+ (+ means >1 uM)
COc1cc(NC2CC3CCC2C3)nc(-c2nc(C)cs2)n1 (stereo not drawn) [IN11055-087-P1]	+ (+ means >1 uM)
Cc1csc(-c2ncc(CO)c(NC3CCC(F)(F)CC3)n2)n1 [IN11238-040-P1]	+ (+ means >1 uM)

IN: GET /values?readout=SC100 (μM)&item= Cc1csc(-c2nc(NC3CCC(F)(F)CC3)cc(OCc3cnnn3C)n2)n1
OUT: +++ (+++ means <200 nM)

IN: Also check COc1nc(-c2nc(C)cs2)nc(NC2CCC(F)(F)CC2)c1OCc1cnco1 [IN11125-091-P1]
OUT: + (+ means >1 uM)

IN: Also check Cc1csc(-c2nc(NC3CCC(F)(F)CC3)cc(N3CCC(N(C)C)CC3)n2)n1 [IN10881-020.P1]
OUT: +++ (+++ means <200 nM)

IN: Also check CCOCCc1cc(NC2CCC(F)(F)CC2)nc(-n2ccc(C3CC3)n2)n1 [IN11217-069-P1]
OUT: + (+ means >1 uM)
